Experimental target: Receptor-type tyrosine-protein phosphatase F (Homo sapiens)
Sequence (P10586 whole entry): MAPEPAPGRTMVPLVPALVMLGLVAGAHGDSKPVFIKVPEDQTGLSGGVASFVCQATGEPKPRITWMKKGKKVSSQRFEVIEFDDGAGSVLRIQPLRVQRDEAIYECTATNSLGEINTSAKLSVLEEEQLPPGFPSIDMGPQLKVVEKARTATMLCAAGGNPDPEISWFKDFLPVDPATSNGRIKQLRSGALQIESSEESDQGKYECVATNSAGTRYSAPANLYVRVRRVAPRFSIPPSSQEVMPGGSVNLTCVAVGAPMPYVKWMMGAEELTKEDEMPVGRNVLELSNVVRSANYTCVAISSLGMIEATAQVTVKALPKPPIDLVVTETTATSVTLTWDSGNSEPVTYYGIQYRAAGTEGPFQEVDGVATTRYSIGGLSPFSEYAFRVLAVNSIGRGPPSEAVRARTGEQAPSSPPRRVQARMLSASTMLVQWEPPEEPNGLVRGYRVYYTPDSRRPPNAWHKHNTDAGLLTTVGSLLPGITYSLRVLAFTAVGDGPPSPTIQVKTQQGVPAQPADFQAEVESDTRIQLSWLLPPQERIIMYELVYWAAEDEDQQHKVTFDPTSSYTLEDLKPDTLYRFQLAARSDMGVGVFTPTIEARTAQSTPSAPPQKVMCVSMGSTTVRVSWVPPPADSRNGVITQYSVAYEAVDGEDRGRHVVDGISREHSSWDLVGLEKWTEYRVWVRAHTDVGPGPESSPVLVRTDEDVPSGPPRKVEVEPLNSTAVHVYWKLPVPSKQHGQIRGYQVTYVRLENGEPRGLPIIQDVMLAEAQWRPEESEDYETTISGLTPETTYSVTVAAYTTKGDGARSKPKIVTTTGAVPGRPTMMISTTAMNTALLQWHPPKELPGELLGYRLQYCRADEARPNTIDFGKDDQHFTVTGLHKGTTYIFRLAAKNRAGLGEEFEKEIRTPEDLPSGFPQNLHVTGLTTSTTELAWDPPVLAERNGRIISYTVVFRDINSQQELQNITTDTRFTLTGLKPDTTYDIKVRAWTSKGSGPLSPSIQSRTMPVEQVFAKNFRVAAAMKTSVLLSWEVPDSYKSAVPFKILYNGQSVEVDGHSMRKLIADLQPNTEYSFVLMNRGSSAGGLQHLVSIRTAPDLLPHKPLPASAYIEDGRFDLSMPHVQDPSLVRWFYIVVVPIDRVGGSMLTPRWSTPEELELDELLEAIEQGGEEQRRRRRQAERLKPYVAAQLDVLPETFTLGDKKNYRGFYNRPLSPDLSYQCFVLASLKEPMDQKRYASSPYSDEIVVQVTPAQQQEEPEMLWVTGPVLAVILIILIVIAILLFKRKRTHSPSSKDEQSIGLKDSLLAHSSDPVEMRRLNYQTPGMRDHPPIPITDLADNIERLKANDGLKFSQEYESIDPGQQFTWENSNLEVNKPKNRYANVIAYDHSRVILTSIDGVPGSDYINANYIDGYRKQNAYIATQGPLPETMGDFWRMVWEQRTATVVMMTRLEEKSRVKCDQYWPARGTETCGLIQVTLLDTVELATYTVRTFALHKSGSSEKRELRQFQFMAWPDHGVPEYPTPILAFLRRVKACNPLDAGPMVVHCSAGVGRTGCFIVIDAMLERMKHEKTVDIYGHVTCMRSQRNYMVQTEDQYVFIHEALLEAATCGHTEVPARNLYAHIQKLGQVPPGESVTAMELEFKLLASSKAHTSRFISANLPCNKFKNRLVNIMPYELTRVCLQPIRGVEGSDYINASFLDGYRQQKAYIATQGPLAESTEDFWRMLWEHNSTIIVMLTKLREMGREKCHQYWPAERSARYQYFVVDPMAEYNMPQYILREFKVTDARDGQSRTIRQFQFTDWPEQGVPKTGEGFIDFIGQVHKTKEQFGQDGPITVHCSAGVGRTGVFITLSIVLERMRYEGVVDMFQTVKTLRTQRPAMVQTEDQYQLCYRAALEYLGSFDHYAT
Experiment summary: Inhibition of LAR (unknown origin) using 3-o-methylfluorescein phosphate as substrate at 20 ug/ml
Parameter measured: inhibition

> print(dat)
                                 cpd.smiles  parameter.measured  measurement
1  O=C(Nc1ccc(-c2ccc(NC(=O)c3ccccc3)cn2)cc1)c1ccccc1          inhibition        < 50%
2  O=C(Nc1ccc(-c2ccc(NC(=O)C3CCCCC3)cn2)cc1)C1CCCCC1          inhibition        < 50%
3  O=C(Nc1ccc(-c2ccc(NC(=O)C3CCN(C(=O)c4ccccc4)CC3)cc2)cc1)C1CCN(C(=O)c2ccccc2)CC1          inhibition        < 50%
4  O=C(Nc1ccc(-c2ccc(NC(=O)c3ccc(F)cc3)cn2)cc1)c1ccc(F)cc1          inhibition        < 50%
5  O=C(Nc1ccc(-c2ccc(NC(=O)C3CCN(C(=O)c4ccco4)CC3)cc2)cc1)C1CCN(C(=O)c2ccco2)CC1          inhibition        < 50%
6  O=C(Nc1ccc(-c2ccc(NC(=O)C3CCN(C(=O)c4ccc(F)cc4)CC3)cc2)cc1)C1CCN(C(=O)c2ccc(F)cc2)CC1          inhibition        < 50%
7  CC(C)(C)OC(=O)N1CCC(C(=O)Nc2ccc(-c3ccc(NC(=O)C4CCN(C(=O)OC(C)(C)C)CC4)cc3)cc2)CC1          inhibition        < 50%
8  O=C(Nc1ccc(-c2ccc(NC(=O)c3ccco3)cc2)cc1)c1ccco1          inhibition        < 50%
9  O=C(Nc1ccc(-c2ccc(C(=O)Nc3ccccc3)cc2)cc1)c1ccccc1          inhibition        < 50%

---

Experimental target: Tyrosine-protein phosphatase non-receptor type 6 (Homo sapiens, UniProt P29350)
Sequence (P29350 whole entry): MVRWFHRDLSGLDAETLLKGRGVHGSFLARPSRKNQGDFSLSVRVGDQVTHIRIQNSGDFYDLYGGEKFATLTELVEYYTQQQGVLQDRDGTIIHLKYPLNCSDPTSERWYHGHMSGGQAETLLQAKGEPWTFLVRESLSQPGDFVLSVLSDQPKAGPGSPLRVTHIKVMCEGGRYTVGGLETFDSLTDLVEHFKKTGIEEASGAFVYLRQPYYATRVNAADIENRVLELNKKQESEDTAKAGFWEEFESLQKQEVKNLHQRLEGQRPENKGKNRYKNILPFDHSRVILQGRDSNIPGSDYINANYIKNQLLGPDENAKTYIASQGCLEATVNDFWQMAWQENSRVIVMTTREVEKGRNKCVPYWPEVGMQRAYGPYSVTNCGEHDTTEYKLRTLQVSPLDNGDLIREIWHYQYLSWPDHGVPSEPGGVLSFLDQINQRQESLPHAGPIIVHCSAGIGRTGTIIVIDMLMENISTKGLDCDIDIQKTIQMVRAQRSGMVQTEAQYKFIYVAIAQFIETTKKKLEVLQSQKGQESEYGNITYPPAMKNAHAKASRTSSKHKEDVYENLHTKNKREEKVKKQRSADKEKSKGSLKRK
Experiment summary: Inhibition of SHP-1 (unknown origin) using 3-o-methylfluorescein phosphate as substrate
Parameter measured: IC50 (µM)

> print(dat)
           substance  parameter.measured  measurement
1  SODIUM ORTHOVANAD                IC50         17.8

---

Species: Homo sapiens
Experiment summary: Selectivity ratio of IC50 for TCPTP (unknown origin) to IC50 for PTP1B (unknown origin)
Would you please tag the item Y when its Ratio IC50 is 3 or above, and N when it is below?

> print(dat)
                                 cpd.smiles  class.label
1  O=C(Nc1ccc(-c2ccc(NC(=O)C3CCN(C(=O)c4ccco4)CC3)cc2)cc1)C1CCN(C(=O)c2ccco2)CC1            Y
2  O=C(Nc1ccc(-c2ccc(NC(=O)c3ccco3)cc2)cc1)c1ccco1            N
3  O=C(Nc1ccc(-c2ccc(NC(=O)C3CCCCC3)cn2)cc1)C1CCCCC1            Y
4  CC(C)(C)OC(=O)N1CCC(C(=O)Nc2ccc(-c3ccc(NC(=O)C4CCN(C(=O)OC(C)(C)C)CC4)cc3)cc2)CC1            N
5  O=C(Nc1ccc(-c2ccc(NC(=O)C3CCN(C(=O)c4ccccc4)CC3)cc2)cc1)C1CCN(C(=O)c2ccccc2)CC1            N
6  O=C(Nc1ccc(-c2ccc(NC(=O)c3ccccc3)cn2)cc1)c1ccccc1            Y

Value source: ChEMBL document CHEMBL3232924
